Biological target: Human Kidney Microsome-derived 20-HETE-producing Enzyme
Assay: Inhibitory effect against human kidney microsome-derived 20-HETE-producing enzyme
Assay type: biochemical
Conditions: human kidney microsomal fraction, tritium-arachidonic acid substrate, NADPH, 37° C. for 1.5 hours, pH 7.4; read-out: IC50 (50% inhibition of 20-HETE production)
metric: IC50 (nM)
Express it in nM; write the number only.

[in] Name the reported IC50 value associated with the compound CN(C)CC(C)(C)CCc1ccc(N/C=N/O)cc1
[out] 10.5
